# ASSAY_TEXT: Human liver microsome clearance (HLM CL)
# Assay type: in vitro ADME
# ASSAY_CONDITIONS: human, microsomes
Where a name gives a salt, the structure may show the parent alone.
Label Satisfied when half-life is strictly below 50 min; otherwise label Not satisfied.

COMPOUND	LABEL_VALUE
CC[C@@]1(O)C(=O)OCc2c1cc1n(c2=O)Cc2c-1nc1cc(F)c(C)c3c1c2[C@](C)(O)CC3 (single isomer, unassigned)	Satisfied
CC[C@@]1(O)C(=O)OCc2c1cc1n(c2=O)Cc2c-1nc1cc(F)c(C)c3c1c2[C@H](O)CC3 (single isomer, unassigned)	Satisfied
CC[C@@]1(O)C(=O)OCc2c1cc1n(c2=O)Cc2c-1nc1cc(F)c(C)c3c1c2[C@@](C)(NC(=O)CO)CC3	Not satisfied
CC[C@@]1(O)C(=O)OCc2c1cc1n(c2=O)Cc2c-1nc1cc(F)c(C)c3c1c2[C@](C)(N)CC3 (single isomer, unassigned) [Compound 8-72, hydrochloride]	Satisfied
CC[C@@]1(O)C(=O)OCc2c1cc1n(c2=O)Cc2c-1nc1cc(F)c(C)c3c1c2[C@@](C)(O)CC3 (single isomer, unassigned)	Satisfied
CC[C@@]1(O)C(=O)OCc2c1cc1n(c2=O)Cc2c-1nc1cc(F)c(C)c3c1c2[C@@H](OCCO)CC3 (single isomer, unassigned)	Not satisfied
CC[C@@]1(O)C(=O)OCc2c1cc1n(c2=O)Cc2c-1nc1cc(F)c(C)c3c1c2[C@@H](N)CCC3 (single isomer, unassigned) [Compound 7-59, methanesulfonate]	Satisfied
CC[C@@]1(O)C(=O)OCc2c1cc1n(c2=O)Cc2c-1nc1cc(F)c(C)c3c1c2[C@H](OCCO)CC3 (single isomer, unassigned)	Not satisfied
CC[C@@]1(O)C(=O)OCc2c1cc1n(c2=O)Cc2c-1nc1cc(F)c(C)c3c1c2[C@](C)(OCCO)CC3 (single isomer, unassigned)	Not satisfied

====

In this section, each of the compounds is paired with its reported IC50.
# Tested on: Jeko-1
# ASSAY_TEXT: CTG assay of ROR-1 ADCs and toxins, JeKo-1
# Type: cell-based
# ASSAY_CONDITIONS: Homo sapiens; Jeko-1 P4, run 2, 72 h; read-out: Jeko-1 P4 (RUN2) IC50

COMPOUND	IC50 / nM
CC[C@@]1(O)C(=O)OCc2c1cc1n(c2=O)Cc2c-1nc1cc(F)c(C)c3c1c2[C@@H](OCCO)CC3 (single isomer, unassigned)	0.5
CC[C@@]1(O)C(=O)OCc2c1cc1n(c2=O)Cc2c-1nc1cc(F)c(C)c3c1c2[C@@](C)(NC(=O)CO)CC3	3.7

====

# ASSAY_TEXT: Human liver microsome clearance (HLM CL)
# Format: in vitro ADME
# ASSAY_CONDITIONS: human liver microsomes 0.5 mg protein/mL, NADPH, 60 min; read-out: HLM (T1/2)
ENDPOINT: half-life (min)

QUERY_SMILES	RECORDED_VALUE
CC[C@@]1(O)C(=O)OCc2c1cc1n(c2=O)Cc2c-1nc1cc(F)c(C)c3c1c2[C@@](C)(NCCO)CC3.Cl	49.1
CC[C@@]1(O)C(=O)OCc2c1cc1n(c2=O)Cc2c-1nc1cc(F)c(C)c3c1c2[C@](C)(NCCO)CC3.Cl	17.5

====

# ASSAY_TEXT: Human hepatocyte clearance (HHEP CL)
# Format: in vitro ADME
# Design: dose or concentration left out as unconfirmed
# ASSAY_CONDITIONS: both sexes, human, hepatocytes
Items are presented alongside their recorded CLint scaled.

COMPOUND	CLint scaled (mL/min/kg)
CC[C@@]1(O)C(=O)OCc2c1cc1n(c2=O)Cc2c-1nc1cc(F)c(C)c3c1c2[C@@](C)(NC(=O)CO)CC3	57.5
CC[C@@]1(O)C(=O)OCc2c1cc1n(c2=O)Cc2c-1nc1cc(F)c(C)c3c1c2[C@](C)(OCCO)CC3 (single isomer, unassigned)	51.3
CC[C@@]1(O)C(=O)OCc2c1cc1n(c2=O)Cc2c-1nc1cc(F)c(C)c3c1c2[C@](C)(NC(=O)CO)CC3	40.8

====

# ASSAY_TEXT: Human hepatocyte clearance (HHEP CL)
# Format: in vitro ADME
# Parameters: dose or concentration left out as unconfirmed
# ASSAY_CONDITIONS: both sexes; human hepatocytes, 90 min incubation; read-out: HHEP Cl (human hepatocytes intrinsic clearance)

MOLECULE	CLint scaled / mL/min/kg
CC[C@@]1(O)C(=O)OCc2c1cc1n(c2=O)Cc2c-1nc1cc(F)c(C)c3c1c2[C@@](C)(NCCO)CC3.Cl [Compound 16-95, hydrochloride]	29.6
CC[C@@]1(O)C(=O)OCc2c1cc1n(c2=O)Cc2c-1nc1cc(F)c(C)c3c1c2[C@](C)(NCCO)CC3.Cl [Compound 17-96, hydrochloride]	47.1

====

# ASSAY_TEXT: Human hepatocyte clearance (HHEP CL)
# Format: in vitro ADME
# Parameters: dose or concentration left out as unconfirmed
# ASSAY_CONDITIONS: both sexes, human, hepatocytes
We begin with a simple list: items and their reported CLint scaled.

COMPOUND	CLint scaled / mL/min/kg
CC[C@@]1(O)C(=O)OCc2c1cc1n(c2=O)Cc2c-1nc1cc(F)c(C)c3c1c2[C@@](C)(OCCO)CC3 (single isomer, unassigned)	63.4
CC[C@@]1(O)C(=O)OCc2c1cc1n(c2=O)Cc2c-1nc1cc(F)c(C)c3c1c2[C@@H](N)CCC3 (single isomer, unassigned) [Compound 7-59, methanesulfonate]	69.4
CC[C@@]1(O)C(=O)OCc2c1cc1n(c2=O)Cc2c-1nc1cc(F)c(C)c3c1c2[C@](C)(O)CC3 (single isomer, unassigned)	75.7
CC[C@@]1(O)C(=O)OCc2c1cc1n(c2=O)Cc2c-1nc1cc(F)c(C)c3c1c2[C@H](O)CC3 (single isomer, unassigned)	79.2
CC[C@@]1(O)C(=O)OCc2c1cc1n(c2=O)Cc2c-1nc1cc(F)c(C)c3c1c2[C@@H](OCCO)CC3 (single isomer, unassigned)	75.5

====

# ASSAY_TEXT: Human hepatocyte clearance (HHEP CL)
# Type: in vitro ADME
# Set-up: dose or concentration left out as unconfirmed
# ASSAY_CONDITIONS: both sexes, human, hepatocytes
Where a name gives a salt, the structure may show the parent alone.
ENDPOINT: CLint scaled (mL/min/kg)

MOLECULE	ENDPOINT	RECORDED_VALUE
CC[C@@]1(O)C(=O)OCc2c1cc1n(c2=O)Cc2c-1nc1cc(F)c(C)c3c1c2[C@H](OCCO)CC3 (single isomer, unassigned) [Compound 5-47]	CLint scaled	53.7
CC[C@@]1(O)C(=O)OCc2c1cc1n(c2=O)Cc2c-1nc1cc(F)c(C)c3c1c2[C@@H](O)CC3 (single isomer, unassigned) [Compound 3-35]	CLint scaled	50.4
CC[C@@]1(O)C(=O)OCc2c1cc1n(c2=O)Cc2c-1nc1cc(F)c(C)c3c1c2[C@@](C)(O)CC3 (single isomer, unassigned) [Compound 13-84]	CLint scaled	112
CC[C@@]1(O)C(=O)OCc2c1cc1n(c2=O)Cc2c-1nc1cc(F)c(C)c3c1c2[C@@](C)(N)CC3 (single isomer, unassigned) [Compound 8-71, hydrochloride]	CLint scaled	81.7
CC[C@@]1(O)C(=O)OCc2c1cc1n(c2=O)Cc2c-1nc1cc(F)c(C)c3c1c2[C@](C)(N)CC3 (single isomer, unassigned) [Compound 8-72, hydrochloride]	CLint scaled	79.1
CC[C@@]1(O)C(=O)OCc2c1cc1n(c2=O)Cc2c-1nc1cc(F)c(C)c3c1c2[C@H](N)CCC3 (single isomer, unassigned) [Compound 7-60, methanesulfonate]	CLint scaled	64.5

====

# ASSAY_TEXT: PAMPA (Parallel Artificial Membrane Permeability Assay)
# Assay type: physicochemical
# ASSAY_CONDITIONS: pH 7.4
ENDPOINT: Papp (×10⁻⁶ cm/s)

MOLECULE	ENDPOINT	RECORDED_VALUE
CC[C@@]1(O)C(=O)OCc2c1cc1n(c2=O)Cc2c-1nc1cc(F)c(C)c3c1c2[C@@H](N)CC3.CS(=O)(=O)O [Exatecan, reference compound]	Papp	5.7

====

# ASSAY_TEXT: Human liver microsome clearance (HLM CL)
# Format: in vitro ADME
# ASSAY_CONDITIONS: human, microsomes
ENDPOINT: CLint scaled (L/h/kg)

COMPOUND	RECORDED_VALUE
CC[C@@]1(O)C(=O)OCc2c1cc1n(c2=O)Cc2c-1nc1cc(F)c(C)c3c1c2[C@@](C)(OCCO)CC3 (single isomer, unassigned)	2.79
CC[C@@]1(O)C(=O)OCc2c1cc1n(c2=O)Cc2c-1nc1cc(F)c(C)c3c1c2[C@@H](O)CC3 (single isomer, unassigned)	1.21
CC[C@@]1(O)C(=O)OCc2c1cc1n(c2=O)Cc2c-1nc1cc(F)c(C)c3c1c2[C@@H](N)CCC3 (single isomer, unassigned) [Compound 7-59, methanesulfonate]	2.02
